Where do the numbers come from? From paper PMC2953525.

system name: Ung1 PIP peptide
test summary: SPR analysis of PCNA binding to PIP peptide
Set-up: species or system yeast
experimental parameters: PCNA immobilized, peptide 5-5,000 nM, ProteOn XPR36; read-out: Binding affinity for Ung1 PIP peptide (SPR)
property name: pKd
# pKd is unitless: minus log10 of the molar concentration; print number only

Prompt: Given POL30: wild-type yeast PCNA (POL30), IDCL sequence DIDADFLKIEEL , state its recorded pKd.
Completion: 5.92
